Would you kindly list Cas9 with SSAP activity (normalized) for each of these molecules?
# Test system: gene editing with Cas9
# method-summary: Screen of 322 new SSAP proteins, gene editing activity with Cas9 (Table 5)
# Assay type: cell-based
# reported-conditions: normalized
# Source text: 322 new SSAP proteins were identified from sequence data, synthesized, and screened for activity with Cas9 and dCas9. Gene editing activities are shown below in Table 5, followed by amino acid sequences of the proteins.
Would you mind answering with just the numeric figure?

Fill in: Cas9 with SSAP activity (normalized) of SSAP_184: SEQ ID NO: 353; Streptomyces scabiei (protein, listed as Streptomyces scabiei) DADRMARIALTLIRKNPDLATCSGESFLGALMTCSQLGFEPGSPTQEAFIVPYKGEATFQLGYQGMVTLFYQHPMASSVKVETVRENDYFEHEEGLEEKLVHRPCKTGPRGKAIAYYSVARLINGGRTFKVMYPAEIEERREKLPSKNSPAWRNSYDEMAKKTVLRNHFKALPKSAELARAMAHDGTVRTDWQPDAIDVPPEYLSEPQRPELGTGSTQ is ___
−0.308

Given SSAP_30: SEQ ID NO: 199 (protein) EKPKLIQRFAERFSVDPNKLFDTLKATAFKQRDGSAPTNEQMMALLVVADQYGLNPFTKEIFAFPDKQAGIIPVVGVDGWSRIINQHDQFDGMEFKTSETKVSLDGAKECPEWMECIIYRRDRSHPVKITEYLDEVYRPPFEGNGKNGPYRVDGPWQTHTKRMLRHKSMIQCSRIAFGFVGIFDQDEAERIIEGQATHVVEPSVIPPEQVDDRTRGLVYKLIERAEASNAWNSALEYANEHFQGVELTFAKQEIFNAQQQAAKALTQPLAS , state its recorded Cas9 with SSAP activity (normalized).
0.564

So what does the record say about Cas9 with SSAP activity (normalized) for SSAP_257: SEQ ID NO: 426; Listeria (multispecies) (protein, listed as Listeria sp.) ATNDELKNQLANKQNGGQVASAQSLDLKGLLEAPTMRKKFEKVLDKKAPQFLTSLLNLYNGDDYLQKTDPMTVVTSAMVAATLDLPIDKNLGYAWIVPYKGRAQFQLGYKGYIQLALRSGQYKSINVIEVREGELLKWNRLTEEIELDLDNNTSEKVVGYCGYFQLINGFEKTVYWTRKEIEAHKQKFSKSDFGWKKDYDAMAKKTVLRNMLSKWGILSIDMQTAVTEDEAEPRERKDVTEDESIPDIIDAPITPSDTLEAGSEVQGSMI ?
0.821

Which value of Cas9 with SSAP activity (normalized) has been reported for SSAP_16: SEQ ID NO: 185 (protein) MAKENYSDPNGKLLNSITTFEVNGEEVKLSGNIIRDYLVSGNAEVTDQEIIMFLQLCKYQKLNPFLNEAYLVKFKNTKGPDKPAQIIVSKEAFMKRAETHEQYDGFEAGVIVERGGEIIELEGAVSLASDKLLGGWAKVFRKDRNRPVSVRISEKEFNKRQSTWNTMPLTMMRKTAVVNAMREAFPDNLGAMYTEEEQGSLQNTETSVQQEIKQNANAEVLDIPSQQNEVPDFKEVREPEHVEMPPIYGEQQSTPPARPY in the records?
−0.452
